TARGET_OR_TEST_SYSTEM: Cbl-b (Homo sapiens (Human), UniProt Q13191)
Sequence (Q13191 whole entry, species assumed): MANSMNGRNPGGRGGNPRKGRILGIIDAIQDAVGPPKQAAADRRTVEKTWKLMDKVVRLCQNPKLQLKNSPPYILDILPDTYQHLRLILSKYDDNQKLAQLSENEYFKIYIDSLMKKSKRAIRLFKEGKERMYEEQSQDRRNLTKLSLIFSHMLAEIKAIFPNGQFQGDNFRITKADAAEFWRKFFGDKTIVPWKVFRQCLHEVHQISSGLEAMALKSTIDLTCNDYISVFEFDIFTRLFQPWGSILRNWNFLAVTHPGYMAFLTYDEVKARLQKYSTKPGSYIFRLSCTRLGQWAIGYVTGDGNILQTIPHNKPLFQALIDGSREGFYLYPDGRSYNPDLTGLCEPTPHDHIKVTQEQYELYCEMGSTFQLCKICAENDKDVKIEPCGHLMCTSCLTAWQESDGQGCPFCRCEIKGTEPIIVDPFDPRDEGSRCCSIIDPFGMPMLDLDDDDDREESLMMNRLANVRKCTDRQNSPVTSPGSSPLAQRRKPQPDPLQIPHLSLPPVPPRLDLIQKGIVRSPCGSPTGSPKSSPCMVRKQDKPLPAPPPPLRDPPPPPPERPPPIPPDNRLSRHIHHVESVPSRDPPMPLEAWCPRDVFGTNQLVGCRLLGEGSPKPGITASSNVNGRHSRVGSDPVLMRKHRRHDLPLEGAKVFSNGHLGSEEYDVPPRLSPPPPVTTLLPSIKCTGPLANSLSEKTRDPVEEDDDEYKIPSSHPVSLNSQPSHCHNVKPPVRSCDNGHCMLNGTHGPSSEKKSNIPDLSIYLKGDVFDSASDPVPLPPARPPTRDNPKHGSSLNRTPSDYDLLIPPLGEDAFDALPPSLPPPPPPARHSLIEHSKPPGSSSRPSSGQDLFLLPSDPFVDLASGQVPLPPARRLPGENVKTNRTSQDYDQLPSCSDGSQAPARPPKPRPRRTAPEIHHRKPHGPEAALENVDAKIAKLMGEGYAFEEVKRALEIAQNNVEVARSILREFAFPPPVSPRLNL
pIC50: −log10 of the molar value.
READOUT_LABEL: pIC50

# COMPOUND, pIC50
data = [
    ("C[C@H]1CCCN(Cc2cc3c(C#N)cn(-c4cc(-c5ccc(F)cc5C(=O)N5CC(F)C5)cc(C5CC5)n4)c(=O)c3[nH]2)C1", "> 7.00"),
    ("N#Cc1c[nH]c2c(=O)n(-c3cc(-c4ccc(F)cc4C(=O)C4CC(F)C4)cc(C4CC4)n3)cc(C(F)(F)F)c12 (stereo not shown)", "> 7.00"),
    ("C[C@H]1CCCN(Cc2cc3ncn(-c4cc(-c5ccc(F)cc5C(=O)N5CC(F)C5)cc(C5CC5)n4)c(=O)c3[nH]2)C1", "> 7.00"),
    ("C[C@H]1CCCN(Cc2cc3c(C#N)cn(-c4cc(-c5cccnc5C(=O)N(C)C)cc(C5CC5)n4)c(=O)c3[nH]2)C1", "6.00 to 7.00"),
    ("O=C(c1cc(F)ccc1-c1cc(C2CC2)nc(-n2cnc3cc(C4CCNC4)[nH]c3c2=O)c1)N1CC(F)C1 (stereo not shown)", "> 7.00"),
    ("CN1CCOCC1c1cc2c(C(F)(F)F)cn(-c3cc(-c4ccc(F)cc4C(=O)N4CC(F)C4)cc(C4CC4)n3)c(=O)c2[nH]1 (racemic)", "> 7.00"),
]

Need pIC50 of O=C(c1cc(F)ccc1-c1cc(C2CC2)nc(-n2cc(C(F)(F)F)c3cc(C4COCCN4)[nH]c3c2=O)c1)N1CC(F)C1 (racemic) , thanks.
> 7.00

Need pIC50 of C[C@H]1CCCN(Cc2cc3c(C4CC4)cn(-c4cc(-c5ccc(F)cc5C(=O)N5CCC5)cc(C5CC5)n4)c(=O)c3[nH]2)C1 , thanks.
> 7.00

Need pIC50 of C[C@@H]1CN(Cc2cc3ncn(-c4cc(-c5ccc(F)cc5C(=O)N5CC(F)C5)cc(C5CC5)n4)c(=O)c3[nH]2)CCO1 , thanks.
> 7.00

Need pIC50 of CNC(=O)c1cc(F)ccc1-c1cc(C2CC2)nc(-n2cc(C3CC3)c3cc(CN4CCC[C@H](C)C4)[nH]c3c2=O)c1 , thanks.
> 7.00

Need pIC50 of C[C@H]1CCCN(Cc2cc3c(C4CC4)cn(-c4cc(-c5ccc(F)cc5C(=O)N5CC(F)(F)C5)cc(C5CC5)n4)c(=O)c3[nH]2)C1 , thanks.
> 7.00

Need pIC50 of N#Cc1cn(-c2cc(-c3ccc(F)cc3C(=O)N3CC(F)C3)cc(C3CC3)n2)c(=O)c2[nH]c(CO)cc12 , thanks.
> 7.00

Need pIC50 of CC(O)c1cc2ncn(-c3cc(-c4ccc(F)cc4C(=O)N4CC(F)C4)cc(C4CC4)n3)c(=O)c2[nH]1 (stereo not shown) , thanks.
6.00 to 7.00

====

TARGET_OR_TEST_SYSTEM: Cbl-b (Homo sapiens (Human))
MEASUREMENT_PROTOCOL: Cbl-b probe displacement HTRF binding assay
STATED_CONDITIONS: 0.4 nM biotinylated Cbl-b, 150 nM BODIPY probe
READOUT_LABEL: IC50

The cases that follow already have their IC50 on record.
# COMPOUND, IC50
data = [
    ("CCOCCNC(=O)c1cc(F)ccc1-c1cc(C2CC2)nc(-n2cc(C3CC3)c3cc(CN4CCC[C@H](C)C4)[nH]c3c2=O)c1", "100 to 1000 nM"),
    ("N#Cc1c(CO)[nH]c2c(=O)n(-c3cc(-c4ccc(F)cc4C(=O)C4CC(F)C4)cc(C4CC4)n3)cc(C(F)(F)F)c12 (stereo not shown)", "< 100 nM"),
    ("O=C(c1cc(F)ccc1-c1cc(C2CC2)nc(-n2cnc3cc(CNCCC(F)(F)F)[nH]c3c2=O)c1)N1CC(F)(F)C1", "< 100 nM"),
    ("C[C@H]1CCCN(Cc2nc3c(C(F)(F)F)cn(-c4cc(-c5ccc(F)cc5C(=O)N5CC(F)C5)cc(C5CC5)n4)c(=O)c3[nH]2)C1", "< 100 nM"),
    ("C[C@H]1CCCN(Cc2ccc3c(c2)C(=O)N(c2cc(-c4ccc(F)cc4C(=O)N4CC(F)C4)cc(C4CC4)n2)C3)C1", "< 100 nM"),
    ("C[C@H]1CCCN(Cc2cc3c(C#N)cn(-c4cc(-c5ccc(F)cc5C(=O)N5CC(F)C5)cc(C(F)(F)F)c4)c(=O)c3[nH]2)C1", "100 to 1000 nM"),
]

Need IC50 of CO[C@@H](C)CN(C)Cc1cc2ncn(-c3cc(-c4ccc(F)cc4C(=O)N4CC(F)(F)C4)cc(C4CC4)n3)c(=O)c2[nH]1 , thanks.
< 100 nM

Need IC50 of C[C@H]1CCCN(Cc2cc3c(C4CC4)cn(-c4cc(-c5ccc(F)cc5C(=O)N5CC(F)C5)nc(C5CC5)n4)c(=O)c3[nH]2)C1 , thanks.
< 100 nM

Need IC50 of C[C@H]1CCCN(Cc2cc3c(C4CC4)cn(-c4cc(-c5ccc(F)cc5C(=O)N(C)c5ccccc5)cc(C5CC5)n4)c(=O)c3[nH]2)C1 , thanks.
100 to 1000 nM

Need IC50 of C[C@H]1CCCN(Cc2[nH]c3c(=O)n(-c4cc(-c5ccc(F)cc5C(=O)N5CC(F)C5)cc(C5CC5)n4)cc(C#N)c3c2Cl)C1 , thanks.
< 100 nM

====

Test system: Jurkat cells
MEASUREMENT_PROTOCOL: IL-2 secretion assay in CD3/CD28-activated Jurkat cells (AlphaLISA)
Format: cell-based, human
STATED_CONDITIONS: CD3/CD28 activation, 24 h
Protocol: Certain compounds were also evaluated in an IL-2 secretion assay. On the day of the assay, a 16 point, 1:2 master serial dilution of each compound was prepared in Opti-MEM to span a final concentration range of 10 μM to 300 μM. […] The level of JIL-2 secretion in the supernatants was then determined using the IL-2 (human) AiphaLISA Detection Kit (PerkinElmer) according to the manufacturer's recommendations. The AiphaLISA signal was measured using an EnVision plate reader (PerkinElmer). […]
EC50 overview

Need EC50 of N#Cc1c[nH]c2c(=O)n(-c3cc(-c4ccc(F)cc4C(=O)C4CC(F)C4)cc(C4CC4)n3)cc(C(F)(F)F)c12 (centres unmarked) [Example 51] , thanks.
100 to 1000 nM

Need EC50 of COCCNCc1cc2ncn(-c3cc(-c4ccc(F)cc4C(=O)N4CC(F)(F)C4)cc(C4CC4)c3)c(=O)c2[nH]1 [Example 42] , thanks.
< 100 nM

Origin of values: patent US20240425497A1
